System: MGC-803
Assay: Antiproliferative activity against human MGC-803 cells assessed as inhibition of cell proliferation incubated for 48 hrs by MTT assay
Assay type: functional, cell-based
Conditions: MGC-803, 48 h
value_kind: IC50

Worked examples, 5 molecules total:
| structure_smiles_string | IC50 |
| --- | --- |
| CN(c1ccc2c(ccn2C)c1)c1nc(N2CCCCC2)nc2sccc12 | 0.0148 µM |
| CN(c1ccc2c(ccn2C)c1)c1nc(N2CCN(C(=O)OC(C)(C)C)CC2)nc2sccc12 | 0.589 µM |
| COc1ccc(/C=C\c2cc(OC)c(OC)c(OC)c2)cc1O | 0.00629 µM |
| CCN(c1ccc2c(ccn2C)c1)c1nc(Cl)nc2sccc12 | 0.00367 µM |
| Cn1ccc2cc(Nc3ncnc4ccsc34)ccc21 | > 5 µM |

Here is another molecule to look at.
stdin: Need IC50, item Cn1ccc2cc(Nc3nc(Cl)nc4ccsc34)ccc21
stdout: > 5 µM

---

Tested on: MGC-803
Assay: Antiproliferative activity against human MGC-803 cells assessed as inhibition of cell proliferation incubated for 48 hrs by MTT assay
Type: functional, cell-based
Conditions: MGC-803, 48 h
For each record, check the reported IC50: if it is below 10 nM write 1, else write -1.

# example entries with known answers
| compound | class_assignment |
| --- | --- |
| CN(c1ccc2c(ccn2C)c1)c1nc(N2CCC2)nc2sccc12 | -1 |
| CC(C)(C)OC(=O)n1ccc2cc(Nc3nc(Cl)nc4sccc34)ccc21 | -1 |
| CN(c1ccc2c(ccn2C)c1)c1nc(N2CCOCC2)nc2sccc12 | -1 |

stdin: # TODO verify IC50 < 10 nM strictly for this compound: CN(c1ccc2c(ccn2C)c1)c1nc(N2CCSCC2)nc2sccc12
stdout: -1

stdin: Does this compound meet the criterion IC50 < 10 nM? CN1CCN(c2nc(N(C)c3ccc4c(ccn4C)c3)c3ccsc3n2)CC1
stdout: -1

stdin: IC50 under 10 nM? Item: CN(c1ccc2c(ccn2C)c1)c1nc(N2CCC(O)CC2)nc2sccc12
stdout: -1

stdin: Is the reported IC50 for CN(c1ccc2c(ccn2C)c1)c1nc(Cl)nc2ccsc12 strictly below 10 nM?
stdout: 1

stdin: Input CN(c1ccc2c(ccn2C)c1)c1ncnc2sccc12 ; condition: IC50 strictly below 10 nM. Does it hold?
stdout: 1

---

Tested on: NCI-H1975
Assay: Antiproliferative activity against human NCI-H1975 cells assessed as inhibition of cell proliferation incubated for 48 hrs by MTT assay
Type: functional, cell-based
Conditions: NCI-H1975, 48 h
value_kind: IC50 (nM)
// note: answer is a bare numeric in nM

stdin: Quick one: IC50 of CN(c1ccc2c(ccn2C)c1)c1nc(N2CCCC2)nc2sccc12 ?
stdout: 2.96

---

Test: Cytotoxicity against human GES1 cells assessed as inhibition of cell proliferation incubated for 48 hrs by MTT assay
Assay type: toxicity, cell-based
value_kind: IC50 at 48 h
Could you write the number and then its unit?

stdin: Would you mind telling me what IC50 at 48 h value was observed for CN(c1ccc2c(ccn2C)c1)c1nc(N2CCCC2)nc2sccc12 ?
stdout: 0.0311 µM

---

System: HGC-27
Assay: Antiproliferative activity against human HGC-27 cells assessed as inhibition of cell proliferation incubated for 48 hrs by MTT assay
Assay type: functional, cell-based
Conditions: HGC-27, 48 h
value_kind: pIC50
Scale: pIC50 equals -log10([C]), with [C] in mol/L.

stdin: For the molecule CN(c1ccc2c(ccn2C)c1)c1nc(N2CCCC2)nc2sccc12 , what pIC50 is on record?
stdout: 8.74
